Reference source: ChEMBL document CHEMBL1961873

molecular target: Glycogen synthase kinase-3 beta (Homo sapiens) (UniProt P49841); details: at 1 µM;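 also: reported values are mean percent inhibition of GSK3B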
Sequence (P49841 whole entry, looked up): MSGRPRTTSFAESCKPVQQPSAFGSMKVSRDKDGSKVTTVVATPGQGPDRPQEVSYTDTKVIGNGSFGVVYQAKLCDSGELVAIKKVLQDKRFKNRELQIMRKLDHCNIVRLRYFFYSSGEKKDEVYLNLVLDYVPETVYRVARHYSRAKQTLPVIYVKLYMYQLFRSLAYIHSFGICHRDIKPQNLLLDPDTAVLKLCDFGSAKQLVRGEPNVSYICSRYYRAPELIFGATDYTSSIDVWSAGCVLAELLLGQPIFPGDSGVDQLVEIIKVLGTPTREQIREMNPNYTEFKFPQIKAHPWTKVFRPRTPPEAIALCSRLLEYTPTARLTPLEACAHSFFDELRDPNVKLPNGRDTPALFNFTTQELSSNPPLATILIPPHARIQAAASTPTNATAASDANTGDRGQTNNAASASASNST
parameter measured: inhibition (%)

compound structure string: CN1CCN(C(=O)c2ccc(NC(=O)Nc3ccc(N(C)c4ccnc(Nc5ccc(CS(C)(=O)=O)cc5)n4)cc3)cc2)CC1
parameter measured: inhibition
measured number: 4.51
--
compound structure string: COC(=O)c1ccc2c(c1)C(=Cc1cc(Br)c(O)c(Br)c1)C(=O)N2
parameter measured: inhibition
measured number: 44.2
--
compound structure string: FC(F)(F)c1ccc(-c2nn3ncccc3c2-c2ccnc(Nc3ccc4c(c3)OCCO4)n2)cc1
parameter measured: inhibition
measured number: 9.99
--
compound structure string: CN(C)C(=O)O[C@@H]1CN[C@@H](C#Cc2cc3ncnc(Nc4ccc(OCc5cccc(F)c5)c(Cl)c4)c3s2)C1
parameter measured: inhibition
measured number: 7.41
--
compound structure string: O=C(Nc1ccc(Oc2ccc3[nH]c(NC(=O)c4ccco4)nc3c2)cc1)Nc1cc(C(F)(F)F)ccc1F
parameter measured: inhibition
measured number: 1.83
--
compound structure string: CCn1c(-c2nonc2N)nc2ccc(F)cc21
parameter measured: inhibition
measured number: 3.37
--
compound structure string: c1ccc(Nc2ncc(-c3ccccc3)o2)cc1
parameter measured: inhibition
measured number: 13.3
--
compound structure string: NS(=O)(=O)c1ccc(Nc2cc(-c3cccc(O)c3)n[nH]2)cc1
parameter measured: inhibition
measured number: 5.21
--
compound structure string: Nc1nccc(-c2c(-c3ccc(F)cc3)nn3cc(C(F)(F)F)ccc23)n1
parameter measured: inhibition
measured number: -1.01

---

target: Protein kinase C beta type (Homo sapiens) (UniProt P05771); settings: at 1 µM;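 also: mean inhibition value, enzyme form tested was the PKC-beta1 splice variant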
Sequence (P05771 2-671 limits assumed): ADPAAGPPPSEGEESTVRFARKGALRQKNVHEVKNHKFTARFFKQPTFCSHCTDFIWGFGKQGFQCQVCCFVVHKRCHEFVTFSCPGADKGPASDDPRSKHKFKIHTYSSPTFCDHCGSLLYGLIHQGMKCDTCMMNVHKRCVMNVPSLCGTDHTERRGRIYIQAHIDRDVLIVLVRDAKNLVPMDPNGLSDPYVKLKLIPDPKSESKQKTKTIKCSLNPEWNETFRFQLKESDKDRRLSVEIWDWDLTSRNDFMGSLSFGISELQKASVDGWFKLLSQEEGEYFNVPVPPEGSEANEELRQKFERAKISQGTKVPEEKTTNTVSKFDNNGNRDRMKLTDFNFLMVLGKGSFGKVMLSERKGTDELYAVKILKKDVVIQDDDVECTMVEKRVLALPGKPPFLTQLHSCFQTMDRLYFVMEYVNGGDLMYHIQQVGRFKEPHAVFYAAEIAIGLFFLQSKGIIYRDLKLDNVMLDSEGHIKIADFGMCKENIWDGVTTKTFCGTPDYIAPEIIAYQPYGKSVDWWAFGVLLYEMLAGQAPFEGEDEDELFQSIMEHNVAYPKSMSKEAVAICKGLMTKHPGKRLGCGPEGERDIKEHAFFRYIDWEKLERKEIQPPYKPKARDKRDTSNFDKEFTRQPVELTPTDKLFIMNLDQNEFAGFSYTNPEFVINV
Description: GSK_PKIS: PKC-beta1 (splice variant) mean inhibition at 1 uM [Nanosyn]
parameter measured: inhibition

compound structure string: C[C@@H](Oc1cc(-n2cnc3ccc(OC[C@@H](O)CO)cc32)sc1C(N)=O)c1ccccc1Cl
parameter measured: inhibition
result: 1.7%

compound structure string: NS(=O)(=O)c1ccc(Nc2cc(-c3cccc(O)c3)n[nH]2)cc1
parameter measured: inhibition
result: 1.78%

compound structure string: N#Cc1c(NC(=O)c2ccccc2F)sc2c1CCCC2
parameter measured: inhibition
result: 1.07%

compound structure string: COc1cccc(-n2ncc3c(N/N=C/c4ccc(S(C)(=O)=O)cc4)ncnc32)c1
parameter measured: inhibition
result: 7.27%

compound structure string: O=C1Nc2ccc(-c3cccnc3)cc2C1=Cc1cc(Br)c(O)c(Br)c1
parameter measured: inhibition
result: -1.03%

compound structure string: C[C@@H](Oc1cc(-n2cnc3ccc(OCC4CCN(C)CC4)cc32)sc1C(N)=O)c1ccccc1C(F)(F)F
parameter measured: inhibition
result: 5.91%

compound structure string: Cc1ccc(O)cc1Nc1ccnc2ccc(S(C)(=O)=O)cc12
parameter measured: inhibition
result: 4.87%

compound structure string: COc1cc(/C=N/Nc2ncnc3c2cnn3C(C)C)ccc1O
parameter measured: inhibition
result: 3.01%

compound structure string: Cc1ccc(C(=O)NC2CC2)cc1-c1ccc2[nH]ncc2c1
parameter measured: inhibition
result: -0.31%

compound structure string: CS(=O)(=O)Nc1cccc(-c2ccc3c(NC(=O)C4CC4)n[nH]c3c2)c1
parameter measured: inhibition
result: -0.16%

---

target: Leucine-rich repeat serine/threonine-protein kinase 2 (Homo sapiens) (UniProt Q5S007); details: at 1 µM;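 also: mean percent inhibition of LRRK2 measured in the GSK PKIS kinase inhibitor set screen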
Sequence (Q5S007 whole entry): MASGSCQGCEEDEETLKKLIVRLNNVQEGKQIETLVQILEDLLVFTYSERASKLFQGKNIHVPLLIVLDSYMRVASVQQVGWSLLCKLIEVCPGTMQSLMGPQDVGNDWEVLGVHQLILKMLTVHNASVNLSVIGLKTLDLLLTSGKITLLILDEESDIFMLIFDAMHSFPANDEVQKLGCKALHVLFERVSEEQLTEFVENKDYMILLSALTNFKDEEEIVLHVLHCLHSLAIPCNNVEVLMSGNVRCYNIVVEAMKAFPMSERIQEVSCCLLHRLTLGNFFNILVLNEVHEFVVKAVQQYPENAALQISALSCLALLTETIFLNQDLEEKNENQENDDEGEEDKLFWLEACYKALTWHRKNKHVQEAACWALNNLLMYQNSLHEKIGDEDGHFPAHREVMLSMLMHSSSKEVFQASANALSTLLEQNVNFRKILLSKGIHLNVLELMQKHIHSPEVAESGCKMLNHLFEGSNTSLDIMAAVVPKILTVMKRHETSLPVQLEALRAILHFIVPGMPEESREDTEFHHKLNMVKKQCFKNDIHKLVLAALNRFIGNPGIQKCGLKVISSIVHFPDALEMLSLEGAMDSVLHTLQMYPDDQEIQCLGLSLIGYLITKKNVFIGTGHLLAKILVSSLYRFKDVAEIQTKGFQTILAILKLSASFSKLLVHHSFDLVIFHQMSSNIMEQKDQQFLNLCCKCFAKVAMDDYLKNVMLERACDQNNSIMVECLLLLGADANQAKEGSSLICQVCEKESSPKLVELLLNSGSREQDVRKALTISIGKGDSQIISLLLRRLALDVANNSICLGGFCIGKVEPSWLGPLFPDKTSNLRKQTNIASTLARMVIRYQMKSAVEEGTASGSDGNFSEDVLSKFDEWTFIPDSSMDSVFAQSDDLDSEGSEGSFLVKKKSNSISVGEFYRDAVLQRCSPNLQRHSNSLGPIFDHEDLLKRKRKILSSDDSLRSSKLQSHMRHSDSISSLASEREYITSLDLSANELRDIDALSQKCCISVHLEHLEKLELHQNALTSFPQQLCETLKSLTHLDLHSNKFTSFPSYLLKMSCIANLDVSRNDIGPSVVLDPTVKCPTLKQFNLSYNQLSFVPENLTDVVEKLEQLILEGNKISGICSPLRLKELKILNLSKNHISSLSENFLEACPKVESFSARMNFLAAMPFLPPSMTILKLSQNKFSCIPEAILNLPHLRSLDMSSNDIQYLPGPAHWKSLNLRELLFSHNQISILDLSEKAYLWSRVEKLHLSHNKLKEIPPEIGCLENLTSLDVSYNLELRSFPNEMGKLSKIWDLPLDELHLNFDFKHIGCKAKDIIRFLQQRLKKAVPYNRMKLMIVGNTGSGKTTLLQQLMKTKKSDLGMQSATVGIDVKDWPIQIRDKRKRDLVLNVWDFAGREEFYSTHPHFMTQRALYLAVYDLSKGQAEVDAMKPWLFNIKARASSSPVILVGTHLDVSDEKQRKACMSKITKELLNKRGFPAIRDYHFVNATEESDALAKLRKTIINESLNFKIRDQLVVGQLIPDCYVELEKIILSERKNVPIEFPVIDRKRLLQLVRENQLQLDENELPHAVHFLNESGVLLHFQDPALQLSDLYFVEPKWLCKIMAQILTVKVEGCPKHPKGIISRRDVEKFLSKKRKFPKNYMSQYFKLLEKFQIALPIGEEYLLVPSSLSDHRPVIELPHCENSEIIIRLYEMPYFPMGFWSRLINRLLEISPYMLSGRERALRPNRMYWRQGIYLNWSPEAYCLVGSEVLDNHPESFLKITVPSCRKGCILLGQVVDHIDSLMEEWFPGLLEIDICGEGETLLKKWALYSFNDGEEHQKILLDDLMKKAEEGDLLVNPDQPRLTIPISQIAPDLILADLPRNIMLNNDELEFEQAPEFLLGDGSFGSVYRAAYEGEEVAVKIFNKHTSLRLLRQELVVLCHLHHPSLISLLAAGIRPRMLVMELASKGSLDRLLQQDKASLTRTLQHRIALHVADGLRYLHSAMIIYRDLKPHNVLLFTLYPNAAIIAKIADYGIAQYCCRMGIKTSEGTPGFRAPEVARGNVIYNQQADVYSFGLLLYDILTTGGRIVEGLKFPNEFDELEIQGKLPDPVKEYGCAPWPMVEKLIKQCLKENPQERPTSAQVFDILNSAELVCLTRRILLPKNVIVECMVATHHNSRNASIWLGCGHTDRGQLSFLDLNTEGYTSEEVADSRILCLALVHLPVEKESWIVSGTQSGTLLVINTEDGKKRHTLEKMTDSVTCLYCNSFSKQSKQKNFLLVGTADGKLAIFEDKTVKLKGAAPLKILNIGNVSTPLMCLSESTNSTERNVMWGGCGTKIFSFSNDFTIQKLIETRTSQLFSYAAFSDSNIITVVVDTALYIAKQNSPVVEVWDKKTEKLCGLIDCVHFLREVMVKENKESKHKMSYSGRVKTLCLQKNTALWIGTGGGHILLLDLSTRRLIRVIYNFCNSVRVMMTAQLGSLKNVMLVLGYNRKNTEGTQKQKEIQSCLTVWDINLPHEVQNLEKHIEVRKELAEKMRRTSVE
// n strictly below 10% in inhibition; y otherwise

compound: CN1CCN(C(=O)c2ccc(NC(=O)Nc3ccc(N(C)c4ccnc(Nc5ccc(CS(C)(=O)=O)cc5)n4)cc3)cc2)CC1
measured on: Leucine-rich repeat serine/threonine-protein kinase 2 (Homo sapiens) (UniProt Q5S007)
assigned category: y
//
compound: NS(=O)(=O)c1ccc(Nc2cc(-c3cccc(O)c3)n[nH]2)cc1
measured on: Leucine-rich repeat serine/threonine-protein kinase 2 (Homo sapiens) (UniProt Q5S007)
assigned category: y
//
compound: CCOc1nccc2c1nc(-c1nonc1N)n2CC
measured on: Leucine-rich repeat serine/threonine-protein kinase 2 (Homo sapiens) (UniProt Q5S007)
assigned category: n
//
compound: COC(=O)Nc1nc2cc(Oc3ccc(NC(=O)Nc4cccc(Br)c4)cc3)ccc2[nH]1
measured on: Leucine-rich repeat serine/threonine-protein kinase 2 (Homo sapiens) (UniProt Q5S007)
assigned category: y
//
compound: Cc1ccc2c(-c3ccnc(Nc4cccc(C(F)(F)F)c4)n3)c(-c3ccccc3)nn2n1
measured on: Leucine-rich repeat serine/threonine-protein kinase 2 (Homo sapiens) (UniProt Q5S007)
assigned category: n
//
compound: NS(=O)(=O)c1ccc(NC=C2C(=O)Nc3ccc4ncsc4c32)cc1
measured on: Leucine-rich repeat serine/threonine-protein kinase 2 (Homo sapiens) (UniProt Q5S007)
assigned category: y
//
compound: CC(C)c1ccc(Nc2nccc(-c3cnn4ncccc34)n2)cc1
measured on: Leucine-rich repeat serine/threonine-protein kinase 2 (Homo sapiens) (UniProt Q5S007)
assigned category: y
//
compound: NS(=O)(=O)c1ccc(-c2cc3ccncc3cc2OCc2ccccc2)cc1
measured on: Leucine-rich repeat serine/threonine-protein kinase 2 (Homo sapiens) (UniProt Q5S007)
assigned category: n
//
compound: Cc1ccc(O)cc1Nc1ccnc2ccc(S(C)(=O)=O)cc12
measured on: Leucine-rich repeat serine/threonine-protein kinase 2 (Homo sapiens) (UniProt Q5S007)
assigned category: y
//
compound: Cc1cc(-c2ccccn2)cc(C)c1/C=C/c1cncc(-c2nn[nH]n2)c1
measured on: Leucine-rich repeat serine/threonine-protein kinase 2 (Homo sapiens) (UniProt Q5S007)
assigned category: y
//
compound: NC(=O)c1sc(-n2cnc3ccccc32)cc1OCc1ccccc1Br
measured on: Leucine-rich repeat serine/threonine-protein kinase 2 (Homo sapiens) (UniProt Q5S007)
assigned category: y
//
compound: OCc1ccc(-c2nc(-c3ccccn3)c(-c3ccc4c(c3)OCO4)[nH]2)cc1
measured on: Leucine-rich repeat serine/threonine-protein kinase 2 (Homo sapiens) (UniProt Q5S007)
assigned category: n
//
compound: CCCN1CCCC(c2ccc(Nc3nc(Nc4cc(F)ccc4C(N)=O)c4cc[nH]c4n3)c(OC)c2)C1 (stereo not drawn)
measured on: Leucine-rich repeat serine/threonine-protein kinase 2 (Homo sapiens) (UniProt Q5S007)
assigned category: y
//
compound: Nc1nccc(C#Cc2cncnc2Nc2ccc(OCc3cccc(F)c3)c(Cl)c2)n1
measured on: Leucine-rich repeat serine/threonine-protein kinase 2 (Homo sapiens) (UniProt Q5S007)
assigned category: y
//
compound: COc1ccc(-c2nn3ncccc3c2-c2ccnc(Nc3cccc(C(F)(F)F)c3)n2)cc1
measured on: Leucine-rich repeat serine/threonine-protein kinase 2 (Homo sapiens) (UniProt Q5S007)
assigned category: n
//
compound: NS(=O)(=O)c1cccc(-c2cc3ccncc3cc2OCc2ccccc2)c1
measured on: Leucine-rich repeat serine/threonine-protein kinase 2 (Homo sapiens) (UniProt Q5S007)
assigned category: n
//
compound: CN(C)C(=O)O[C@@H]1CN[C@@H](C#Cc2cc3ncnc(Nc4ccc(OCc5cccc(F)c5)c(Cl)c4)c3s2)C1
measured on: Leucine-rich repeat serine/threonine-protein kinase 2 (Homo sapiens) (UniProt Q5S007)
assigned category: n
